I'd appreciate it if you could supply pEC50 values for the items below.
Biological target: human PPARγ (Homo sapiens)
Sequence (P37231 29-505): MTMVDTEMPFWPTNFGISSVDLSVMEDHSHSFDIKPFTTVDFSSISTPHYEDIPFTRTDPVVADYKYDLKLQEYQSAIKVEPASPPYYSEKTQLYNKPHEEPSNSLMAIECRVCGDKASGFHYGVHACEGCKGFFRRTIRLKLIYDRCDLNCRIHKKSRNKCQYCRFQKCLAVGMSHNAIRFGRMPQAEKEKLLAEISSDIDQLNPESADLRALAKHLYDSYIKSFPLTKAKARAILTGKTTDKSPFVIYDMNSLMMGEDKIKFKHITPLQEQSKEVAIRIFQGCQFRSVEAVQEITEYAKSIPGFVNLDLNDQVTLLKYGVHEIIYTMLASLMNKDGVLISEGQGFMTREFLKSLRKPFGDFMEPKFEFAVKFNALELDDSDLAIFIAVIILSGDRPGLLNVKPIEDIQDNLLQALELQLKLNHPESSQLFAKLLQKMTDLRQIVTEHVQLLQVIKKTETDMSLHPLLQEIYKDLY
Experiment: PPARγ luciferase reporter gene transactivation in transfected HEK-293 cells
Remember the convention: pEC50 equals -log10 of concentration in molar.

Exam item: GET /values?readout=pEC50&item= CCCCCCC/C=C\CC#CC#C/C=C\CO
Marked response: 5.38

Exam item: Then this molecule: CCCCCCC/C=C\CC#CC#CCCCO
Marked response: 4.95

Exam item: Then this molecule: C=C[C@@H](O)C#CC#C[C@@H](O)/C=C\CCCCCCC
Marked response: 5.48

Exam item: Then this molecule: C=C[C@@H](O)C#CC#C[C@@H](O)C1OC1CCCCCCC (stereo partly drawn)
Marked response: 5.69

Exam item: Then this molecule: C=C[C@@H](O)C#CC#C[C@H](/C=C\CCCCCCC)OC(C)=O
Marked response: 5.44

Exam item: Then this molecule: C=C[C@@H](O)/C=C/C#C[C@@H](O)/C=C\CCCCCCC
Marked response: 5.34
